A set of molecules tested on D(3) dopamine receptor (Homo sapiens, UniProt P35462), with measured AC50:

CC[C@@H]1/C=C(\C)C[C@H](C)C[C@H](OC)[C@H]2O[C@@](O)(C(=O)C(=O)N3CCCC[C@H]3C(=O)O[C@H](/C(C)=C/[C@@H]3CC[C@H](Cl)[C@H](OC)C3)[C@H](C)[C@@H](O)CC1=O)[C@H](C)C[C@@H]2OC | > 30 µM
OC[C@@H](O)[C@@H](O)[C@H](O)[C@H](O)CO | > 30 µM
CC(N/C(=N\C#N)Nc1ccncc1)C(C)(C)C (stereo not given) [PINACIDIL ANHYDROUS] | > 30 µM
C[C@@H]1C[C@H]2[C@@H]3CCC4=CC(=O)C=C[C@]4(C)[C@@]3(F)[C@@H](O)C[C@]2(C)[C@H]1C(=O)CO | > 30 µM
CC(=O)Oc1c(C)cc(OCC(O)CNC(C)C)c(C)c1C (stereo not given) | > 30 µM
CCCC[N+]1(C)[C@@H]2C[C@@H](OC(=O)[C@H](CO)c3ccccc3)C[C@H]1[C@@H]1O[C@@H]12 (stereo not given in full) | > 30 µM
Cc1nc(-c2ccc(OCC(C)C)c(C#N)c2)sc1C(=O)O | > 30 µM
CN(CCOc1ccc(NS(C)(=O)=O)cc1)CCc1ccc(NS(C)(=O)=O)cc1 [DOFETILIDE] | 3.36 µM
CC(C)=CCC1C(=O)N(c2ccccc2)N(c2ccccc2)C1=O | > 30 µM
CN(C)c1ccc(C(=C2C=CC(=[N+](C)C)C=C2)c2ccc(N(C)C)cc2)cc1 | 1.21 µM

Task: Item: `CN(C)C(=O)Oc1ccc[n+](C)c1` Test system: D(3) dopamine receptor (Homo sapiens, UniProt P35462) Read-out: AC50 Value: ?; further: assay procedure not described here
Sequence (P35462 whole entry): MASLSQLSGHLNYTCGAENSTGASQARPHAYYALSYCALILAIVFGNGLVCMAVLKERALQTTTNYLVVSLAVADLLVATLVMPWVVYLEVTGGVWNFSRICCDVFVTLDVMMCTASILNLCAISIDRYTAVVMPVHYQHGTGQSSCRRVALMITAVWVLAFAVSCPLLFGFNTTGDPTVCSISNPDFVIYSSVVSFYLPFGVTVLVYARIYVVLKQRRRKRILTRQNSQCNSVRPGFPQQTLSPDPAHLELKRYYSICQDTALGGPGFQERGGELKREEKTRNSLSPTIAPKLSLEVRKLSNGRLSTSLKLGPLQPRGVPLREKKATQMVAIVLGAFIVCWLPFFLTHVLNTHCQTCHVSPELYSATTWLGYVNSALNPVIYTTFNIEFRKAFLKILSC
Output: > 30 µM

Task: Enter reported AC50 observed with D(3) dopamine receptor (Homo sapiens, UniProt P35462) for CCc1ccc(CCOc2ccc(CC3SC(=O)NC3=O)cc2)nc1 (stereo not given)
Output: > 30 µM

Task: Item `CCS(=O)(=O)N1CC(CC#N)(n2cc(-c3ncnc4[nH]ccc34)cn2)C1` with D(3) dopamine receptor (Homo sapiens, UniProt P35462) - AC50?
Output: > 30 µM

Task: Return AC50 measured with D(3) dopamine receptor (Homo sapiens, UniProt P35462) given this molecule: `CO[C@@]12[C@H](COC(N)=O)C3=C(C(=O)C(C)=C(N)C3=O)N1C[C@@H]1N[C@@H]12`
Output: > 30 µM

Task: # value lookup — system D(3) dopamine receptor (Homo sapiens, UniProt P35462), readout AC50, item `C[N+](C)(C)CCCCCCCCCC[N+](C)(C)C`; further: assay procedure not described here
Output: > 30 µM

Task: Checklist item: AC50 tested on D(3) dopamine receptor (Homo sapiens, UniProt P35462), entry `Nc1ccc(/N=N/c2ccccc2)c(N)n1` , value?; further: assay procedure not described here
Output: > 30 µM

Task: Field: AC50 (D(3) dopamine receptor (Homo sapiens, UniProt P35462)). Entry: `C(=N\NC1=NCCN1)/c1c2ccccc2c(/C=N/NC2=NCCN2)c2ccccc12`
Output: 5.96 µM

Task: Item: `Oc1ncnc2[nH]ncc12` Test system: D(3) dopamine receptor (Homo sapiens, UniProt P35462) Read-out: AC50 Value: ?; further: assay procedure not described here
Output: > 30 µM

Task: Query for D(3) dopamine receptor (Homo sapiens, UniProt P35462): what AC50 does the record show for CC(C)C(=O)Nc1ccc([N+](=O)[O-])c(C(F)(F)F)c1 [FLUTAMIDE] ?
Output: > 30 µM

Sourced from ChEMBL document CHEMBL5291721
